Listing of entries alongside the reported cytotoxic activity (ADCC) against T24.
Biological target: T1, human CAPRIN-1 protein on the cell surfaces of human cancer cell lines and in human cancer tissues (human, UniProt Q14444 2-709)
T1 sequence (looked up): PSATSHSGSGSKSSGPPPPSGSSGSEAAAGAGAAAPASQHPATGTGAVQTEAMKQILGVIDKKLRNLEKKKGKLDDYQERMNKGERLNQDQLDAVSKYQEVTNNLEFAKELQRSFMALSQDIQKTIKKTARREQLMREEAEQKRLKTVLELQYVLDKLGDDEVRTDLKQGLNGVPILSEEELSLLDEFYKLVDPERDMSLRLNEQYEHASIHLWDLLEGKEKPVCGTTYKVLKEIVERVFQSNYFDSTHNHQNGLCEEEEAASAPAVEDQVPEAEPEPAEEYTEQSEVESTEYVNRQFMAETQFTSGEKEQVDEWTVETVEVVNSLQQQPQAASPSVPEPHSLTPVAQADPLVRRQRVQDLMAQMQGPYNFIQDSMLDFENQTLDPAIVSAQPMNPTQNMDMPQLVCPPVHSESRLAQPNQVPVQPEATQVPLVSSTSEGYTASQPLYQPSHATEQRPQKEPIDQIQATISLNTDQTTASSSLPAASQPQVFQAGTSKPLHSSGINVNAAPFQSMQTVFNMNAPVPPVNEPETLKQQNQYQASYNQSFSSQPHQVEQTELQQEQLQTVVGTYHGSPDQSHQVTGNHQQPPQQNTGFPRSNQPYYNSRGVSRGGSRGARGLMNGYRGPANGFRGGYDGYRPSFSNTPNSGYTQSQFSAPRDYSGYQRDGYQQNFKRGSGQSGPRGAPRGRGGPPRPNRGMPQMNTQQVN
Test: cell-based or functional assay

Binder | cytotoxic activity (ADCC) against T24
anti-CAPRIN-1 mouse monoclonal antibody #5 (antibody, V domains shown, Mouse hybridoma antibody; detected with anti-mouse IgG) VH: GAELVRSGASVKMSCKASGYSFTDYNMYWVKQTPGQGLEWIGYIYPGNGGTNYNQKFKGKATLTADTSSSTAYMQISSLTSEDSAVYFCARDYDDGGYAMDYWGQGTTVTVSS VL: DIQMTQSPASLSASVGETVTITCRASGNIHNYLTWYQQKQGKSPQLLVYNAKTLADGVPSRFSGSGSGTQYSLKINRLQPEDFGSYYCQHFWNIPWTFGGGTKLNSR | ≥ 18%
human-chicken chimeric antibody #1 having the chicken monoclonal antibody #1 variable region (antibody, V domains shown, also called anti-CAPRIN-1 antibody #1; human-chicken chimeric monoclonal antibody (#1); not shown: human IgG1 H-chain constant region; human IgG1 L-chain constant region) VH: AVTLDESGGGLQMSRGGLSLVCKASGFDFSSYQMNWIRQAPGKGLEFVAAINKFGNSTGHGAAVKGRVTISRDNGQSTVRLQLNNLRAEDTAIYFCTKHAYGYCGSGTWCAAGEIDAWGHGTEVIVSS VL: QAASTQPSSVSANPGETVEITCSGGGSYSYGWFQQKSPGSAPVTVIYYNNKRPSDIPSRFSGSKSGSTGTLTITGVQADDEAVYYCGSGDSTDTAVFGAGTTLTVLG | 25.6%
anti-CAPRIN-1 mouse monoclonal antibody #6 (antibody, V domains shown, Mouse hybridoma antibody; detected with anti-mouse IgG) VH: DAELVKPGASVKISCKASGYTFTDHSIHWVQQKPEQGLEWIGYISPGNGNIKYNEKFKGKATLTADKSSSTAYMQLNSLTSEDSAVYFCKRSLGRGGPYYFDYWGQGTTVTVSS VL: DIVLTQAAPSLPVTPGESVSISCRSSKSLLHSNGNTYLYWFLQRPGQSPQLLIYRMSNLASGVPDRFSGSGSGTAFTLRISRVEAEDVGVYYCMQHREYPVTFGSGPN | ≥ 18%
